molecular target: Substance-P receptor (Homo sapiens, UniProt P25103); test: Binding affinity against Neurokinin 1(NK1) receptor from human IM-9 cells using [I]-Bolton Hunter labeled SP
Sequence (P25103 whole entry): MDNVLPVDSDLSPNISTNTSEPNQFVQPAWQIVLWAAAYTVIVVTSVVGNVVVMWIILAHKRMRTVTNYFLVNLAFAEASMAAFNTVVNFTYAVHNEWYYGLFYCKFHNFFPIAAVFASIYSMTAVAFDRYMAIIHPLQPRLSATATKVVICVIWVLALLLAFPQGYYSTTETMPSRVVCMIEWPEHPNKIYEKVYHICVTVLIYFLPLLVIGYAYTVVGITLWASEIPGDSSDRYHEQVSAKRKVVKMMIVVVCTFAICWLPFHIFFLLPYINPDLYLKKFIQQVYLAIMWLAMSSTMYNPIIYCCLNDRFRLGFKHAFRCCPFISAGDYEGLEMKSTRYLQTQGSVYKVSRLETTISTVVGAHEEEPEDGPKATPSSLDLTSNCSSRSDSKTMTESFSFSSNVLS
reported property: log10 of IC50 (log10 of the value in nM)
Remember, log10 of IC50, in nM.

Reference set, count: 6
1. COc1ccc(C(=O)N2CCC(CCN3CCC(C(N)=O)(c4ccccc4)CC3)(c3ccc(Cl)c(Cl)c3)C2)cc1 (configuration not stated) ... 2.80
2. COc1cc(C(=O)N2CC[C@](CCN3CCC(C(N)=O)(c4ccccc4)CC3)(c3ccc(Cl)c(Cl)c3)C2)cc(OC)c1OC ... 0.49
3. COc1ccc(C(=O)N2CCC(CCN3CCC(C(N)=O)(c4ccccc4)CC3)(c3ccc(Cl)c(Cl)c3)C2)c(OC)c1 (configuration not stated) ... 2.10
4. COc1cc(OC)cc(C(=O)N2CCC(CCN3CCC(C(N)=O)(c4ccccc4)CC3)(c3ccc(Cl)c(Cl)c3)C2)c1 (configuration not stated) ... 1.84
5. CC(=O)NC1(c2ccccc2)CCN(CC[C@H](CN(C)C(=O)c2ccccc2)c2ccc(Cl)c(Cl)c2)CC1 [SAREDUTANT] ... 2.77
6. COc1cccc(OC)c1C(=O)N1CCC(CCN2CCC(C(N)=O)(c3ccccc3)CC2)(c2ccc(Cl)c(Cl)c2)C1 (configuration not stated) ... 1.36

Prompt line: # log10 of IC50 lookup, item COc1cc(C(=O)N2CCC(CCN3CCC(C(N)=O)(c4ccccc4)CC3)(c3ccc(Cl)c(Cl)c3)C2)cc(OC)c1OC(C)C (configuration not stated)
Response line: 1.82
